# assay-info: Oral bioavailability in mouse at 1 mg/kg by HPLC method
# Type: ADME, organism-based
# run-conditions: in vivo
reported-endpoint: bioavailability (%)
Numeric answer only, unit % assumed.

Give the value of bioavailability reported for the following: C#Cc1cnc2nc(O)n(C(CC)CC)c2n1 [TIRASEMTIV]
43

---

# assay-info: Oral bioavailability in Beagle dog at 1 mg/kg by HPLC method
# Type: ADME, organism-based, Canis lupus familiaris
# run-conditions: in vivo
reported-endpoint: bioavailability (%)
// units = %; emit number, no label

Hello, please tell me recorded bioavailability for this one: C#Cc1cnc2nc(O)n(C(CC)CC)c2n1 [TIRASEMTIV]
93

---

# Organism: Oryctolagus cuniculus
# assay-info: Activation of troponin in rabbit fast skeletal muscle fibers assessed as increase in calcium stimulated activity by measuring compound concentration that produces 40% increase in myofibril ATPase activity at 25% of calcium concentration needed for maximal response by pyruvate kinase/lactate dehydrogenase-coupled based assay
Field: EC40. Provide a value for each of the compounds that follow.

Fill in EC40 for record "O=c1[nH]c2ncc(-c3ccco3)nc2n1Cc1ccccc1"
> 49 µM

Check the records and state EC40 for "C[C@@H](c1ccccc1)n1c(=O)[nH]c2ncc(S(C)(=O)=O)nc21"
> 49 µM

Report EC40 for "C#Cc1cnc2oc(=O)n(C(CC)CC)c2n1"
> 39.2 µM

Quick one: give measured EC40 for "CCC(CC)n1c(=O)[nH]c2ncc(C#N)nc21"
36.3 µM

Provide only the value of recorded EC40 for "O=c1[nH]c2ncc(Br)nc2n1C1CCCCC1"
10 µM

Supply recorded EC40 for "CCC(CC)n1c(=O)[nH]c2nccnc21" here.
14 µM

Answer with the recorded EC40 for the compound listed here: "C=Cc1cnc2[nH]c(=O)n([C@@H](C)c3ccccc3)c2n1"
3.5 µM

Report EC40, nothing else, for this compound: "CC#Cc1cnc2[nH]c(=O)n(C(CC)CC)c2n1"
> 49 µM

Tell me its EC40 given "CSc1cnc2[nH]c(=O)n([C@@H](C)c3ccccc3)c2n1" as the entry.
2.6 µM

Return EC40 for the following compound: "C[C@H](c1ccccc1)n1c(=O)[nH]c2ncc(-c3ccco3)nc21"
> 49 µM

Give a short answer stating reported EC40 for "C#Cc1cnc2nc(OC)n(C(CC)CC)c2n1" .
> 39.2 µM

Supply reported EC40 belonging to this compound: "C[C@@H](c1ccccc1)n1c(=O)[nH]c2ncc(C#N)nc21"
> 49 µM

Please give the documented EC40 of "CCC(CC)n1c(=O)[nH]c2ncc(OC)nc21"
2.2 µM

Determine its reported EC40: "CC[C@H](C)n1c(=O)[nH]c2ncc(Br)nc21"
1 µM

// fetch EC40 given entry "COc1cnc2[nH]c(=O)n([C@@H](C)c3ccccc3)c2n1"
8.9 µM

Find the measured EC40 of "O=c1[nH]c2ncc(Br)nc2n1C1CC1" and report it.
> 49 µM

Look up and report measured EC40 for this entry: "CCC(CC)n1c(=O)[nH]c2ncc(Br)nc21"
0.3 µM

For "C=Cc1cnc2[nH]c(=O)n(C(CC)CC)c2n1" , write its EC40.
1.1 µM

Look up and state reported EC40 for "C[C@@H](c1ccccc1)n1c(=O)[nH]c2ncc(-c3ccco3)nc21"
7 µM

Name the recorded EC40 of the item "CC(=O)c1cnc2nc(O)n([C@@H](C)c3ccccc3)c2n1" in your answer.
> 49 µM

Return EC40 for the following compound: "C[C@@H](c1ccccc1)n1c(=O)[nH]c2ncc(-c3ccccc3)nc21"
> 49 µM

---

Consider the following compounds; for each one, report its hepatic extraction ratio at 1.5 h.
# assay-info: Extraction ratio in rat liver microsomes measured up to 90 mins by HPLC/MS/MS analysis
# Format: ADME, microsome
# run-conditions: read-out: ERH

// fetch hepatic extraction ratio at 1.5 h given entry "CCC(CC)n1c(O)nc2ncc(C#N)nc21"
< 0.2

Give the reported value of hepatic extraction ratio at 1.5 h for this record: "C=Cc1cnc2[nH]c(=O)n(C(CC)CC)c2n1"
> 0.7

Please give measured hepatic extraction ratio at 1.5 h of the following entry: "C#Cc1cnc2nc(O)n(C(CC)CC)c2n1"
0.26 to 0.3
